# system_tested: rabbit Imidazoline 2 Central (I2C), CKB (gene 100009085) (UniProt P00567)
# Sequence (P00567 whole entry, looked up): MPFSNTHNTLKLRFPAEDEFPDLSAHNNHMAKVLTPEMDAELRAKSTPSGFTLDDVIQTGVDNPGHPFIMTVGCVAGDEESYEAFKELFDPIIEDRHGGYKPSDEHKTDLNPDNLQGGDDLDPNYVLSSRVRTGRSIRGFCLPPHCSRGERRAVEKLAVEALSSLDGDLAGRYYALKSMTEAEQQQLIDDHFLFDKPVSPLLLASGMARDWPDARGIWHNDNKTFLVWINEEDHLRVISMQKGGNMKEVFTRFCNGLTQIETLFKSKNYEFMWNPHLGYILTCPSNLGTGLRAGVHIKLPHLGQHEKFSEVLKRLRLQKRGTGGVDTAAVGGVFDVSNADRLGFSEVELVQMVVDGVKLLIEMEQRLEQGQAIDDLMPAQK
# experimental_protocol: NVS_ENZ_rabI2C: NovaScreen (NVS) Enzymatic Assay for rabbit Imidazoline 2 Central (I2C) (AID 2283228)
# Experimental: NVS_ENZ_rabI2C is a biochemical, single-readout assay that uses extracted gene-proteins from Rabbit brain membranes in a tissue-based cell-free assay. Measurements were taken 1.5 hours after chemical dosing in a 48-well plate.NVS_ENZ_rabI2C is one of one assay component(s) measured or calculated from the NVS_ENZ_rabI2C assay. […] This assay endpoint, NVS_ENZ_rabI2C, was analyzed in the positive analysis fitting direction relative to DMSO as the negative control and baseline of activity. […]
Results filed as inconclusive are left out. Activity calls are given as the source filed them. The calls were made as follows: active = hit-call score of the fitted dose curve at least 0.9, where 1 is the maximum; inconclusive = response in the unintended direction; inactive = score below 0.9.
API: response.call in TRUE = active, FALSE = inactive

Examples with answers:
compound	assigned_category
CCOC(=O)c1ccc(C2CCC(NC[C@H](O)COc3ccc(O)c(NS(C)(=O)=O)c3)CC2)cc1 (stereo partly drawn)	TRUE
CCN(C(=O)c1cc(C)cc(OC[C@H](C)Nc2ccncc2)c1)C(C)C	FALSE
O=c1[nH]c2ccc(S(=O)CCN3CCC(Cc4ccc(F)cc4)CC3)cc2o1 (stereo not drawn)	TRUE
CC[C@H]1CC[C@H](NCc2cc3c(cc2OC)[C@H]2C[C@H]2C(=O)N3C)[C@H](c2ccccc2)N1	TRUE
CN(C)c1ccc(N=NS(=O)(=O)O)cc1	TRUE

Ask: Recorded test call requested for Fc1ccccc1[C@@H](F)COC1CCC(Nc2ncnc3[nH]ncc23)CC1 (stereo partly drawn)
Result: FALSE

Ask: Recorded test call requested for "Nc1ccc(Nc2ccccc2)cc1"
Result: TRUE

Ask: Recorded test call requested for "COc1cccc(-c2ccc(/C=C\CN3CCCCCC3)cc2Cl)c1"
Result: TRUE
